Entries and their measured pIC50 follow.
- System Name: HLA-DR1 (human)
- Assay Info: fluorescence polarization competition; displaces 25 nM fluorescently-labeled polypeptide from 500 nM HLA-DR1
Lab note: report pIC50 as minus log10 of the concentration in molar units, number only.

// below: answered binders
IWYINCFGCHTAAML [APL56] : 4.16
FKGRQAGAGE [APL41] : 4.05
IWYINCFGCRTAAML [APL55] : 4.01

Now take the following binder into account.
Exercise: Give the value of pIC50 reported for the following: RSGTLASAETGVG [APL60]
Solution: 4.21
